Data provenance is patent US10717742B2.

- target: p53-MDM2 interaction (GST-MDM2 protein aa 23-117 / biotinylated p53 wt peptide) (Homo sapiens (Human), UniProt Q00987)
- Sequence (Q00987 23-117): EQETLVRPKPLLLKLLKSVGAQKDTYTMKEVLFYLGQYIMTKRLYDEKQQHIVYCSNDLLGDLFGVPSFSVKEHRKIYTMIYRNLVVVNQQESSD
- experimental protocol: Mdm2-p53 Inhibition AlphaScreen
- run conditions: GST-MDM2 (aa 23-117) / biotinylated p53 wt peptide
Lab note: cut-off is 5 nM. Strictly less in IC50 is true (1). Exactly 5 nM or more is false (0).

>>> category("O=C(O)c1ccc2c(c1)nc1n2C[C@H]2[C@@H]1[C@H](c1ccc(Cl)s1)[C@]1(C(=O)Nc3cc(Cl)ccc31)N2CC1CC1")
"false (0)"
>>> category("CC(C)(C(=O)O)c1ccc2c(c1)nc1n2CC[C@H]2[C@@H]1[C@H](c1cccc(Cl)c1F)[C@]1(C(=O)Nc3cc(Cl)ccc31)N2CC1CC1")
"false (0)"
>>> category("NC(=O)c1ccc2c(c1)nc1n2CC[C@H]2[C@@H]1[C@H](c1cccc(Cl)c1F)[C@]1(C(=O)Nc3cc(Cl)ccc31)N2CC1CC1")
"true (1)"
>>> category("O=C(O)c1ccc2c3n(nc2c1)[C@@H]1[C@H](C3)N(CC2CC2)[C@@]2(C(=O)Nc3cc(Cl)ccc32)[C@H]1c1ccnc(Cl)c1F")
"true (1)"
>>> category("O=C(O)c1ccc2nc3n(c2c1)C[C@@H]1[C@H]3[C@@H](c2cccc(Cl)c2F)[C@@]2(C(=O)Nc3cc(Cl)ccc32)N1CC1CC1")
"false (0)"
>>> category("Cc1c(C(=O)O)ccc2nc3n(c12)CC[C@H]1[C@@H]3[C@H](c2cccc(Cl)c2F)[C@]2(C(=O)Nc3cc(Cl)ccc32)N1CC1CC1 [Ib-204]")
"true (1)"
>>> category("CC(C)CN1[C@H]2CCn3c(nc4cc(C(=O)O)ccc43)[C@H]2[C@H](c2cccc(Cl)c2F)[C@]12C(=O)Nc1cc(Cl)ccc12 [Ib-110]")
"true (1)"
>>> category("CCOc1cccc(CN2[C@H]3Cn4c(nc5cc(C(N)=O)ccc54)[C@H]3[C@H](c3cccc(Cl)c3F)[C@]23C(=O)Nc2cc(Cl)ccc23)c1 [Ib-241]")
"true (1)"
>>> category("Cc1c(C(=O)O)ccc2c1nc1n2CC[C@H]2[C@@H]1[C@H](c1ccnc(Cl)c1F)[C@]1(C(=O)Nc3cc(Cl)ccc31)N2CC1CC1")
"false (0)"
>>> category("CCOc1cccc(CN2[C@H]3Cc4c5cc(C)c(C(=O)O)cc5nn4[C@H]3[C@H](c3cccc(Cl)c3F)[C@]23C(=O)Nc2cc(Cl)ccc23)c1")
"true (1)"
